// data source = patent US9840513B2

Target: F508delCFTR in primary hBE cells with F508del/F508del CFTR mutation (Homo sapiens, UniProt P13569, DEL508-508)
Construct: cells isolated from CF patients with the homozygous mutation; endogenous in cells
Sequence (P13569 with tags, fused parts or gaps DEL508-508): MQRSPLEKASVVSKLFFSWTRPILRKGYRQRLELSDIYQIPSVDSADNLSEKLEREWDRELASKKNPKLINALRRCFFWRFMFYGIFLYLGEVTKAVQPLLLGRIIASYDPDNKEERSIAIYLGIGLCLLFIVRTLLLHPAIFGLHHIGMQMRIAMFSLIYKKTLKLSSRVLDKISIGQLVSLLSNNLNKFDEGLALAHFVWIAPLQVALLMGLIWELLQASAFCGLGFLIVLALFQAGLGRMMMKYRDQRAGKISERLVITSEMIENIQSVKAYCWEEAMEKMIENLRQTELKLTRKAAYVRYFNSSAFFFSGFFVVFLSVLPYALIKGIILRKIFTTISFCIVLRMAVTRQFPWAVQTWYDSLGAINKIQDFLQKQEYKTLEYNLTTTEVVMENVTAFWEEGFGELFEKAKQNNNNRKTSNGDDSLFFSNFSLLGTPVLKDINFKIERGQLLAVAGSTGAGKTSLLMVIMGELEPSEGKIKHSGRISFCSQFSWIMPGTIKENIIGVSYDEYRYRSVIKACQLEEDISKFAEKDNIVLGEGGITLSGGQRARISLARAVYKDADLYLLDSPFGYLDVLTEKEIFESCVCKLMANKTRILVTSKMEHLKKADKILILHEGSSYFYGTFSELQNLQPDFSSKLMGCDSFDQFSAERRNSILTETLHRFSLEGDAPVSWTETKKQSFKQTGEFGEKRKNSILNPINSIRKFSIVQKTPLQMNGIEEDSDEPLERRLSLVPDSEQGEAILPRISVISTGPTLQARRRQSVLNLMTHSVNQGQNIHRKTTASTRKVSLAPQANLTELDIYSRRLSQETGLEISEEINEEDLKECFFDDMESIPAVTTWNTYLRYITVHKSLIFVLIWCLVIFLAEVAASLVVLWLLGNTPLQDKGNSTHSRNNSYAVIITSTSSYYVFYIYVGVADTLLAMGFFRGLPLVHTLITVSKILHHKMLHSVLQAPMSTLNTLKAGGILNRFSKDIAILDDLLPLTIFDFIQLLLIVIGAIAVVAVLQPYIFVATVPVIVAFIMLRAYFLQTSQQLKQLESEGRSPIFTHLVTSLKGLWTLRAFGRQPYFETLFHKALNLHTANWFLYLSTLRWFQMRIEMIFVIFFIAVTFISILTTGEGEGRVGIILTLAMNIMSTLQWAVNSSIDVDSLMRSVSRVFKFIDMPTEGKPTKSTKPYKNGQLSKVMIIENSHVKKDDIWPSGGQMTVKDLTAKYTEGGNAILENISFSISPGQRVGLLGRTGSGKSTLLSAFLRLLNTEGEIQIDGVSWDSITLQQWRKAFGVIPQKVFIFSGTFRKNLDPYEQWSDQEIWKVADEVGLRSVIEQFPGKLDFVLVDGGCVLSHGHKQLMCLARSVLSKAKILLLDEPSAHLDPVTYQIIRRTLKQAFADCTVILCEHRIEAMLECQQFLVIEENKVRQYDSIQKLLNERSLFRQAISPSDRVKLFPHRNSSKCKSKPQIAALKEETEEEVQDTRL
Assay: Transepithelial Clamp Circuit on Human Bronchial Epithelial Cells Conductance Assay (hBE-TECC)
Conditions: primary hBE cells F508del/F508del, 18-24 hours at 37° C., equivalent short circuit current, 6 concentrations
Description: Transepithelial Clamp Circuit on Human Bronchial Epithelial Cells Conductance Assay: A cell based assay using the primary human bronchial epithelial cells (hBE) was used as a secondary assay to test novel F508delCFTR correctors for their activity on primary hBE cells with F508del/F508del CFTR mutation. […] The assay was run in a 24-well format and all 24-wells were measured at the same time point giving a higher throughput for this assay. […]
pEC50: −log10 of the molar value.
measured.quantity: pEC50

- C[C@]1(C(=O)N[C@@H]2C[C@H]([C@H]3CC[C@@H](C(=O)O)CC3)Oc3cc(OC(F)(F)F)ccc32)COc2cc3c(cc21)OC(F)(F)O3 [Example 162]: 7.70
- COc1ccc2c(c1)O[C@@H]([C@H]1CC[C@H](C(=O)O)CC1)C[C@H]2NC(=O)[C@@]1(C)COc2cc3c(cc21)OC(F)(F)O3 [Example 155]: 7.70
- C[C@]1(C(=O)N[C@@H]2C[C@H]([C@H]3CC[C@H](C(=O)O)CC3)Oc3cc(OC(F)(F)F)ccc32)CCc2cc3c(cc21)OC(F)(F)O3 [Example 167]: 7.06

[P] CC(C)(CO)c1cc2cc(NC(=O)[C@@]3(C)COc4cc5c(cc43)OC(F)(F)O5)c(F)cc2n1C[C@@H](O)CO [Example 130]
[Q] COc1ccc2c(c1)O[C@@H](c1cnc([C@H](O)CO)cn1)C[C@H]2NC(=O)[C@@]1(C)COc2cc3c(cc21)OC(F)(F)O3 (single isomer, unassigned) [Example 192]
// select label with min value of measured pEC50 from [ P , Q ] # answer = label of selected item
P
(P: 7.17, Q: 8.22)
